# System: rat TTR
# ASSAY_OVERVIEW: Serum TTR level after LNP delivery (Rat Prealbumin (Transthyretin) ELISA)
# Type: in vivo, rat (Sprague-Dawley)
# STATED_CONDITIONS: Experiment 1, 0.1 mpk, LNP with PEG2K-DMG
Listing of recorded Serum TTR by entry.
Output spec: scalar in µg/mL, unitless text.

CCCCC/C=C\C/C=C\CCCCCCCC(=O)OCC(COC(=O)CCC(OCCCCCCCC)OCCCCCCCC)COC(=O)OCCCN(CC)CC (stereo not shown) :: 519.9
CCCCC/C=C\C/C=C\CCCCCCCC(=O)OCC(COC(=O)CCCCCC(=O)OC(CCCCCCCC)CCCCCCCC)COC(=O)NCCN(CC)CC (stereo not shown) :: 533.0
CCCCC/C=C\C/C=C\CCCCCCCC(=O)OCC(COC(=O)CCC(OCCCCCCCC)OCCCCCCCC)COC(=O)NCCN(CC)CC (stereo not shown) :: 512.9

Lab note: next compound to report on.
Prompt: Look up Serum TTR: CCCCC/C=C\C/C=C\CCCCCCCC(=O)OCC(COC(=O)CCCC(=O)OC(CCCCCCCC)CCCCCCCC)COC(=O)NCCN(CC)CC (stereo not shown)
Completion: 406.3

----------
The entries below are paired with their reported pKa.
# ASSAY_OVERVIEW: pKa of unformulated amine lipid by TNS fluorescence
# Assay type: physicochemical
# STATED_CONDITIONS: sodium phosphate buffer; Table 2; unformulated amine lipid, TNS; read-out: Lipid pKa
# print the numeric value only

CCCCC/C=C\C/C=C\CCCCCCCC(=O)OCC(CCCCCCCCC(=O)OC(CCCC)CCCC)COC(=O)OCCCN(CC)CC (stereo not drawn) [Compound 21] :: 6.2
CCCCC/C=C\C/C=C\CCCCCCCC(=O)OCC(CCCCCCCCC(=O)OC(CCCCCCCC)CCCCCCCCC)COC(=O)CCC(CCCC)OC(=O)NCCN(C)CC (stereo not drawn) [Compound 26] :: 6.36
CCCCCCC(CCCCCC)OC(=O)CCCC(=O)OCC(COC(=O)CCCC(=O)OC(CCCCCC)CCCCCC)COC(=O)NCCN(CC)CC [Compound 37] :: 6.66

Prompt: If you can, please state the reported pKa value of CCCCC/C=C\C/C=C\CCCCCCCC(=O)OCC(CCCCCCCCC(=O)OC(CCCCCC)CCCCCC)COC(=O)OCCCN(CC)CC (stereo not drawn) [Compound 19] .
Completion: 6.09

Prompt: Field request: pKa | item: CCCCCCCCC(CCCCCCCC)OC(=O)CCCC(=O)OCC(COC(=O)CCCC(=O)OC(CCCCCCCC)CCCCCCCC)COC(=O)NCCN1CCCCC1 [Compound 28]
Completion: 6.2

Prompt: Consider the molecule shown here: CCCCC/C=C\C/C=C\CCCCCCCC(=O)OCC(CCCCC(=O)OC(CCCC)CCCC)COC(=O)OCCCN(CC)CC (stereo not drawn) [Compound 14] What is its recorded pKa?
Completion: 6.27

----------
# ASSAY_OVERVIEW: LNP encapsulation efficiency of RNA (Ribogreen fluorescence assay)
# Type: physicochemical
# STATED_CONDITIONS: Table 3, Experiments 1-13; LNP 50% ionizable lipid, 38% cholesterol, 9% DSPC, 3% PEG2K-DMG; sgRNA:mRNA 1:2
OUTCOME_MEASURE: % E (encapsulation efficiency) (%)
Number only, in %; omit the unit.

CCCCCCCCCOC(=O)CCCCCCCN(CCO)CCCCCCCC(=O)OC(CCCCCCCC)CCCCCCCC :: 84

Lab note: next molecule to report on.
Prompt: GET /values?readout=% E (encapsulation efficiency)&item= CCCCC/C=C\C/C=C\CCCCCCCC(=O)OCC(COC(=O)CCCC(=O)OC(CCCCCCCC)CCCCCCCC)COC(=O)N(C)CCN(CC)CC (stereo not drawn)
Completion: 97

----------
Known Z-avg (average particle size) of a selection of molecules
# ASSAY_OVERVIEW: LNP average particle size and polydispersity by dynamic light scattering
# Format: physicochemical
# STATED_CONDITIONS: LNP with 50% ionizable lipid, 38% cholesterol, 9% DSPC, 3% C13 Ether (LNP #1, Compound 53: 3% PEG2K-DMG instead); sgRNA:mRNA 1:2
# Excerpt: Dynamic Light Scattering (“DLS”) is used to characterize the polydispersity index (“pdi” or “PDI”) and size of the LNPs of the present disclosure. DLS measures the scattering of light that results from subjecting a sample to a light source. PDI, as determined from DLS measurements, represents the distribution of particle size (around the mean particle size) in a population, with a perfectly uniform population having a PDI of zero. […]
Just the number please, in nm, no unit attached.

Would you please look over these solved cases?
CCCCC/C=C\C/C=C\CCCCCCCC(=O)OCC(COC(=O)CCC(OCCCCCCCC)OCCCCCCCC)COC(=O)OCCCN(CC)CC (stereo not drawn) :: 87
CCCCCCCCC(CCCCCCCC)OC(=O)CCCCCCC(=O)OCC(COC(=O)CCCCCCC(=O)OC(CCCCCCCC)CCCCCCCC)COC(=O)NCCN(CC)CC :: 88
CCCCCCCCC(CCCCCCCC)OC(=O)CCCCCC(=O)OCC(COC(=O)CCCCCC(=O)OC(CCCCCCCC)CCCCCCCC)COC(=O)OCCCN1CCCC1 :: 63
CCCCCCCCC(CCCCCCCC)OC(=O)CCCCCCC(=O)OCC(CC)(COC(=O)CCCCCCC(=O)OC(CCCCCCCC)CCCCCCCC)COC(=O)OCCCN1CCCC1 :: 65
CCCCCCCCC(CCCCCCCC)OC(=O)CCCCCCC(=O)OCC(COC(=O)CCCCCCC(=O)OC(CCCCCCCC)CCCCCCCC)COC(=O)OCCCN1CCCC1 :: 74

Kindly consider the entry below.
Prompt: Please report the recorded Z-avg (average particle size) for CCCCCCCCC(CCCCCCCC)OC(=O)CCCCC(=O)OCC(COC(=O)CCCCC(=O)OC(CCCCCCCC)CCCCCCCC)COC(=O)NCCN(CC)CC .
Completion: 75

----------
// reported Mean % editing per item
# System: rat TTR gene
# ASSAY_OVERVIEW: In vivo editing of TTR in rat liver after LNP delivery (NGS, % editing)
# Parameters: species or system rat (Sprague-Dawley)
# STATED_CONDITIONS: Experiment 1, 0.1 mpk, LNP with PEG2K-DMG
Express it in %; write the number only.

Worked examples follow.
CCCCC/C=C\C/C=C\CCCCCCCC(=O)OCC(COC(=O)CCC(OCCCCCCCC)OCCCCCCCC)COC(=O)OCCCN(CC)CC (stereo not shown) [Compound 53] :: 38.6
CCCCC/C=C\C/C=C\CCCCCCCC(=O)OCC(COC(=O)CCCC(=O)OC(CCCCCCCC)CCCCCCCC)COC(=O)NCCN(CC)CC (stereo not shown) [Compound 58] :: 44.7
CCCCC/C=C\C/C=C\CCCCCCCC(=O)OCC(COC(=O)CCCCCC(=O)OC(CCCCCCCC)CCCCCCCC)COC(=O)NCCN(CC)CC (stereo not shown) [Compound 59] :: 36.7

Prompt: GET /values?readout=Mean % editing&item= CCCCC/C=C\C/C=C\CCCCCCCC(=O)OCC(COC(=O)CCC(OCCCCCCCC)OCCCCCCCC)COC(=O)NCCN(CC)CC (stereo not shown) [Compound 54]
Completion: 36.9

----------
# ASSAY_OVERVIEW: LNP average particle size and polydispersity by dynamic light scattering
# Type: physicochemical
# STATED_CONDITIONS: LNP with 50% ionizable lipid, 38% cholesterol, 9% DSPC, 3% C13 Ether (LNP #1, Compound 53: 3% PEG2K-DMG instead); sgRNA:mRNA 1:2
OUTCOME_MEASURE: PDI (polydispersity index)
// return a plain number; no unit text

CCCCCCCCC(CCCCCCCC)OC(=O)CCCCCCC(=O)OCC(COC(=O)CCCCCCC(=O)OC(CCCCCCCC)CCCCCCCC)COC(=O)OCCCN1CCCC1 :: 0.01

Prompt: Query: PDI (polydispersity index); subject: CCCCCCCCC(CCCCCCCC)OC(=O)CCCCCCC(=O)OCC(CC)(COC(=O)CCCCCCC(=O)OC(CCCCCCCC)CCCCCCCC)COC(=O)NCCN(CC)CC
Completion: 0.01

Prompt: Using the record for CCCCCCCCC(CCCCCCCC)OC(=O)CCCCCCC(=O)OCC(COC(=O)CCCCCCC(=O)OC(CCCCCCCC)CCCCCCCC)COC(=O)NCCN(CC)CC , report its PDI (polydispersity index).
Completion: 0.02

Prompt: Consider the molecule CCCCCCCCC(CCCCCCCC)OC(=O)CCCCCC(=O)OCC(COC(=O)CCCCCC(=O)OC(CCCCCCCC)CCCCCCCC)COC(=O)OCCCN1CCCC1 and give its measured PDI (polydispersity index).
Completion: 0.01

Prompt: For the molecule CCCCC/C=C\C/C=C\CCCCCCCC(=O)OCC(COC(=O)CCC(OCCCCCCCC)OCCCCCCCC)COC(=O)OCCCN(CC)CC (stereo not drawn) , what PDI (polydispersity index) is on record?
Completion: 0.04

Prompt: Request the reported PDI (polydispersity index) associated with CCCCCCCCC(CCCCCCCC)OC(=O)CCCCC(=O)OCC(COC(=O)CCCCC(=O)OC(CCCCCCCC)CCCCCCCC)COC(=O)NCCN(CC)CC
Completion: 0.01
